- TESTED_ON: recombinant human TFPI (tissue factor pathway inhibitor) (human, UniProt P10646 29-304)
- ASSAY_TEXT: cell-based or functional assay
PROPERTY: FXa assay OD, 5 nM Ab, 10 nM TFPI
Give the figure only, with no unit attached.

Need FXa assay OD, 5 nM Ab, 10 nM TFPI, item clone 3241 (antibody, V domains shown, scFv on yeast at selection; human IgG4/kappa IgG as purified; also called No. 3241 antibody) VH: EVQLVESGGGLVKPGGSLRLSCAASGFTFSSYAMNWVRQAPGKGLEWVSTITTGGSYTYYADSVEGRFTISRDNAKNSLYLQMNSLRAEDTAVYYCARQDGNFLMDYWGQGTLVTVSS VL: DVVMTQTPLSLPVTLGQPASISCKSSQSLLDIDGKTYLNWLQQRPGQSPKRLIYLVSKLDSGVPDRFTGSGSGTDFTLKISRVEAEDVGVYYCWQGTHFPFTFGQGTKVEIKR
0.413

Please look up its FXa assay OD, 5 nM Ab, 10 nM TFPI: clone 1023 (antibody, V domains shown, scFv on yeast at selection; human IgG4/kappa IgG as purified) VH: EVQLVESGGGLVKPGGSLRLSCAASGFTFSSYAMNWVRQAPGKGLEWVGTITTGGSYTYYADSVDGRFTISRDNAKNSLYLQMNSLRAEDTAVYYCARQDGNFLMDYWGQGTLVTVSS VL: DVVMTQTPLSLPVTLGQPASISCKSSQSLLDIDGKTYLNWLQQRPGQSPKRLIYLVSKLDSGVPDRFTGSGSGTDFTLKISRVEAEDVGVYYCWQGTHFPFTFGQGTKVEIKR
0.306

Return reported FXa assay OD, 5 nM Ab, 10 nM TFPI; argument: clone A67 (antibody, V domains shown) VH: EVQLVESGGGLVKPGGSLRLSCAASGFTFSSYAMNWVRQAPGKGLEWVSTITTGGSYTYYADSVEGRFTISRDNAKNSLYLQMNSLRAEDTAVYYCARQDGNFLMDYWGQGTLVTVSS VL: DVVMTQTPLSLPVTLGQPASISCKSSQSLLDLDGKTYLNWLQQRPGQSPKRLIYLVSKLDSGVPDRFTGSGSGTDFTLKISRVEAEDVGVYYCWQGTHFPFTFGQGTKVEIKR
0.234
